This collection of values is drawn from patent US20140112930A1.

# test_target: T1, wild-type human Ang-2 (hAng-2-WT) (human, UniProt O15123 19-496)
# T1 construct: called full-length wild-type; also called Full-length wild-type human Ang-2
# T1 sequence: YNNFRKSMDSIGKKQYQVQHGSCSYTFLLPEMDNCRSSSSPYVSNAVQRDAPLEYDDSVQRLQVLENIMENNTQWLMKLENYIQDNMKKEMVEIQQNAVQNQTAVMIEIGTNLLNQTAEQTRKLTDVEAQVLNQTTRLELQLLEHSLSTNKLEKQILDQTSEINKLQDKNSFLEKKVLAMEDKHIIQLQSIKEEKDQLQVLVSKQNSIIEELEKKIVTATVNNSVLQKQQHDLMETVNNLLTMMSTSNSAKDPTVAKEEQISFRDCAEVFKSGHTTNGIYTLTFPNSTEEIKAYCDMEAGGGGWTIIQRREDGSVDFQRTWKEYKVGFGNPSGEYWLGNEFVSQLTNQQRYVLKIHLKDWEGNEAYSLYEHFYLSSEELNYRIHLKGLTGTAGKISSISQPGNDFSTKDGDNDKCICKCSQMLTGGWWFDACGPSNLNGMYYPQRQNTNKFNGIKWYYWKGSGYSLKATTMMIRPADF
# measurement_protocol: SPR, captured Ab
recorded_endpoint: Kd
Give your result as the value with the unit written after it.

Worked examples, 4 binders total:
- binder: "H1H732N (antibody, V domains shown) VH: EVQLVESGGGLVRPGGSLRLSCAASGFTFTNAWMSWVRQAPGKGLEWIGQIKSKTDGGTIDYAAPVKGRFTVSRDDSENTLFLQMNSLKTEDTAVYYCAGNWNYVDFDYWGQGTLVTVSS VL: DIQMTQSPSSLSASVGDRVTITCRASQDIRNDLGWYQQKPGKAPKRLIYAASSLQGGVPSRFSGSGSGTEFTLTISSLQPEDFATYYCLQHNSYPFTFGPGTKVDIK"
  Kd: "0.202 nM"
- binder: "H1M728N (antibody, V domains shown) VH: EVQLVESGGDLVQPGGSLRLSCTASGFTFSKYWMTWVRQAPGRGLEWVANIKEDGNEKYFLDSVKGRFTISRDNAKDLLFLQMNSLRGEDTAVYYCVRDRGIEVAGPFDYWGQGTLVTVSS VL: DIQMTQSPSTLSASVGDRVTVTCRASQTIINWLAWYQQKPGKAPKLLISKASSLESGVPSRFSGSGSGTEFTLTISSLQPDDFATYYCQQYNRYWTFGQGTMVEIK"
  Kd: "0.0338 nM"
- binder: "H1M724N (antibody, V domains shown) VH: QVQLVESGGGVVQPGRSLRLSCAASGFTLSNYGMHWVRQAPGKGLEWVAVIWHDGSNTYYADSVKGRFTISRDNSKNTLYLQMNSLRAEDTAVYYCTREGLDFWSGYYPNWFDPWGQGTLVTVSS VL: DIQMTQSPSSLSASVGDRVTITCRASQGIRNDLGWYQQKPGKAPKRLIYAASNLQGGVPSRFSGSGSGTEFTLTISSLQPEDFAAYYCLQHNIYPLTFGGGTKVEIK"
  Kd: "0.0331 nM"
- binder: "H2M744N (antibody, V domains shown) VH: QVQLVQSGVEVKKPGASVKVSCKTSGYTFSNNGFSWVRQAPGQGLEWLGWISGYNGNTNYAQKFQGRVTMTTDTSTSTAYMELRTLRSDDTAVYYCARDQDYSNFHWLDPWGQGTLVTVAS VL: DIQMTQSPSSVSASVGDRVIITCRASQGLSSWLAWYQQKPGTAPKLLIHSASSLQTGVPSRFSGSGSGTEFALTINSLQPEDFGTYYCQQANSFPLTFGGGTRVEIK"
  Kd: "0.0289 nM"

# ---- query binder ----
Query: Suppose we examine the binder H1H730N (antibody, V domains shown) VH: EVQLVESGGGLVQPGGSLRLSCAASGFAFRSYWMTWVRQAPGKGLEWVANIQQDGNDKYYVDSVKGRFTISRDNAKNSLYLQMNSLRAEDTAVYYCARDTGIAEAGPFDYWGQGTLVTVSS VL: DIQMTQSPSTLSASVGDRVSITCRASQTIISWLAWYQQKPGKAPRLLIYKASSLESGVPSRFSGSGSGTEFTLTINSLQPDDFATYYCQQYNRYWTFGQGTKVEIK ; what Kd value has been reported?
Result: 0.0475 nM
